test_system: Beta-2 adrenergic receptor (Homo sapiens) (UniProt P07550)
Sequence (P07550 whole entry, looked up): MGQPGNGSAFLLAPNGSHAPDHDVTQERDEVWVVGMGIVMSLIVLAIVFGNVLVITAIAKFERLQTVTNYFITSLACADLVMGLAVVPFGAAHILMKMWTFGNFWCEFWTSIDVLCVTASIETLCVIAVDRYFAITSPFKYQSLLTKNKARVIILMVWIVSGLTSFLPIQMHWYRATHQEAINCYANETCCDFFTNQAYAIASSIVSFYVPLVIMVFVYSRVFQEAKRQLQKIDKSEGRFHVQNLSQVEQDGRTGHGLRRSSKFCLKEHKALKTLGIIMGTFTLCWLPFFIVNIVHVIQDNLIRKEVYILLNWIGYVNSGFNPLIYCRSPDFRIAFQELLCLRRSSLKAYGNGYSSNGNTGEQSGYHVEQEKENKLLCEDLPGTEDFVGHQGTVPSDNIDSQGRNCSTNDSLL
protocol_notes: agonist-induced loss of surface beta2AR – cell-based, FAP fluorogen, flow cytometry, primary screen (AID 504454)
recorded_conditions: Am2.2-beta2AR cells, FAP receptor internalization, stronger effect = higher value, concentration not given here
Among all 340,000 compounds or so, about 1,400 (0.41%) were called active. The sample as a whole holds a higher share of actives than the screen did.
response values for the compounds below.
measured_parameter: response (%)

- CCN(CC)C(=O)CSc1nnc(CNc2ccc(F)cc2)n1Cc1ccco1: -1.42
- COc1cc(C(C(=O)NC2CCCC2)N(C(=O)c2ccco2)c2ccccc2C(C)=O)cc(OC)c1OC (stereo unspecified): 2.2
- CC1=NOC(=O)/C1=C\c1ccccc1: 10.9
- CC(NC(=O)c1ccccc1C(=O)O)c1ccc(-n2ccnc2)cc1 (stereo unspecified): -8.08
- COc1cc(/C=C2/C(=O)ON=C2C)ccc1OCc1cccc(F)c1: 105
- C#CCOc1ccc(/C=C2/C(=O)ON=C2C)cc1OCC: -1.93
- CCc1cc(-c2nnc(SCC(=O)NC3CC3)n2C)cs1: -9.66
- COc1ccc(NC(=O)CN(C)C(=O)c2cccc(S(=O)(=O)N3CCN(c4ccccc4)CC3)c2)cc1: 6.13
- CC1(C)C=Cc2c(ccc3c2OC[C@@H](c2ccc(O)cc2O)C3)O1: 45
- O=C(Nc1ccc(Br)cc1)C1CCC(=O)N1Cc1ccccc1Cl (stereo unspecified): -2.28
- CC(=O)OCCOCn1cnn2c(=O)c(Br)c(C)nc12: -5.29

Cited source for all entries: PubChem BioAssay AID504454
